Test system: S. mansoni schistosomulae
Test: Motility assay on schistosomulae (pixel displacement, relative to DMSO control)
Format: cell-based, Schistosoma mansoni
Settings: Schistosoma mansoni, 120 h; Selleckchem customized library secondary screen, 24h, D5, 1 µM; read-out: Fractional motility
Response key: true means activity at 1 µM >= 60%; false means activity at 1 µM < 60%.

• CC(C)(Cc1ccc2ccccc2c1)NC[C@@H](O)COc1cccc(Cl)c1C#N = false
• Fc1ccc([C@@H]2CCNC[C@H]2COc2ccc3c(c2)OCO3)cc1 = true
• CN1CCC(CNc2ccc3ncc(-c4cccc(OC(F)(F)F)c4)n3n2)CC1 = false
• CN(C)CC/C=C1/c2ccccc2Sc2ccc(Cl)cc21 = true

* * *

Target: SmD2 (Schistosoma mansoni)
Sequence (G4LUJ1 entry or part of it): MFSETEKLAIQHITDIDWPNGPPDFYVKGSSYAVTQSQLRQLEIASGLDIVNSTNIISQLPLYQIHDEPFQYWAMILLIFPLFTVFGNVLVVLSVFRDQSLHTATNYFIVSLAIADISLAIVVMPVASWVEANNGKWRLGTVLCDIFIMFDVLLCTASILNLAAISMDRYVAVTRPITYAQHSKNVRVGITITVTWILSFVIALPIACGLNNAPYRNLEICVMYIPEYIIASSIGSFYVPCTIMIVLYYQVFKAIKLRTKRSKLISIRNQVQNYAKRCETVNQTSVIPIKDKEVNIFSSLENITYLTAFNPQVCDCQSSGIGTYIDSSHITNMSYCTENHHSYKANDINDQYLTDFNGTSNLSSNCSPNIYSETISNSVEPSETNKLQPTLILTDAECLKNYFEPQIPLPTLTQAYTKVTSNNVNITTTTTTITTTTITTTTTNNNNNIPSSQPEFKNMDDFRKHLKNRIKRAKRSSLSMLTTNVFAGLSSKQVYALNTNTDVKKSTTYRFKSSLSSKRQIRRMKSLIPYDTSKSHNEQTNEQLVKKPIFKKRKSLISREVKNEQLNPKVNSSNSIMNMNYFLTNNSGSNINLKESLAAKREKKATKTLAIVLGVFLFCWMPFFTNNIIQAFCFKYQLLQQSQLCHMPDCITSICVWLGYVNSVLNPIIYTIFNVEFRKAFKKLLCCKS
Assay: cell-based
Format: cell-based
Conditions: inhibition of EPN-evoked luminescence, SmD2 expressing HEK293 cells; read-out: IC50
valueKind: IC50 (nM)

- OC(CNCCc1ccccc1)COc1ccccc1C1CCCCC1 (centres unmarked): 12.3
- Cc1ccc(Sc2ccccc2N2CCNCC2)c(C)c1: 3680
- O=C(CCCN1CCC2(CC1)C(=O)NCN2c1ccccc1)c1ccc(F)cc1: 1510
- COc1ccc(CCNCC(O)COc2ccccc2C2CC3CCC2C3)cc1OC (centres unmarked): 27.2
- CC(=O)Nc1ccc(CCNCC(O)COc2cccc3ccccc23)cc1 (centres unmarked): 21.7

* * *

System: S. mansoni schistosomulae
Experiment: Motility assay on schistosomulae (pixel displacement, relative to DMSO control)
Type: cell-based, Schistosoma mansoni
Conditions: schistosomulae, secondary screen, 24h exposure, read at D1, 10 µM
valueKind: Fractional motility

• CCCCc1oc2ccccc2c1C(=O)c1cc(I)c(OCCN(CC)CC)c(I)c1 [Amiodarone] = -0.80
• CNCc1ccc(C)c(NC(=O)c2ccc(Nc3nc(-c4ccccc4)c4ccccc4n3)cc2)c1 [BMS-833923] = 10.40
• Cc1cc(Nc2ncc(Cl)c(Nc3ccccc3S(=O)(=O)C(C)C)n2)c(OC(C)C)cc1C1CCNCC1 [LDK378] = -0.83
• Cc1ccc(S(=O)(=O)c2ccc([N+](=O)[O-])o2)cc1 [NSC697923] = 3.05
• c1ccc(CNc2nc(NCc3ccccc3)c3ccccc3n2)cc1 [DBeQ] = 6.82
• COC(=O)C1=C(C)NC(C)=C(C(=O)OCCN2CCN(C(c3ccccc3)c3ccccc3)CC2)C1c1cccc([N+](=O)[O-])c1 (stereo not drawn) [Manidipine] = -0.78
• CCn1c2ccccc2c2cc(Nc3ccnc(NCCCN4CCOCC4)n3)ccc21 [EHop-016] = 0.07
• C=CC(=O)N1CCC[C@@H](n2nc(-c3ccc(Oc4ccccc4)cc3)c3c(N)ncnc32)C1 [Ibrutinib] = 0.000588
• Cc1ccc(C(=O)N(CCCN)[C@@H](c2nc3cc(Cl)ccc3c(=O)n2Cc2ccccc2)C(C)C)cc1 [Ispinesib] = -0.92
• O=[N+]([O-])C=Cc1ccc2c(c1)OCO2 [MNS, 3,4-methylenedioxy-β-nitrostyrene] = 2.46
• C#CC[C@H](c1nc2cc(Cl)ccc2c(=O)n1Nc1ccccc1)N(CCCN)C(=O)c1cccc(Cl)c1F [ARQ 621] = 2.52
• COc1cc(N2CCC(N)CC2)ccc1Nc1ncc(Cl)c(-c2c[nH]c3ccccc23)n1 [AZD3463] = 1.68
• COCCn1c2c([n+](Cc3cnccn3)c1C)C(=O)c1ccccc1C2=O [YM155] = -0.91
• C=CC(=O)Nc1cc(Nc2nccc(-c3cn(C)c4ccccc34)n2)c(OC)cc1N(C)CCN(C)C [AZD9291] = 7.13
• O=C(NC(NC(=S)Nc1ccc(F)c([N+](=O)[O-])c1)C(Cl)(Cl)Cl)C(c1ccccc1)c1ccccc1 (stereo not drawn) [CGK 733] = -0.71

Source of measurements: paper PMC7284125
